This collection of values is drawn from ChEMBL document CHEMBL1132313.

# Method summary: Inhibition of calcineurin phosphatase activity by the compound
pIC50: −log10 of the molar value.
Respond with condition met for pIC50 values of 7 and above, condition not met for values below.

Solved entries (count: 3):
| Compound | Label class |
| --- | --- |
| C=CC[C@@H]1C=C(C)CC(C)C[C@H](OC)[C@H]2O[C@@](O)(C(=O)C(=O)N3CCCC[C@H]3C(=O)O[C@H](/C(C)=C/[C@@H]3CC[C@@H](O)[C@H](OC)C3)[C@H](C)[C@@H](O)CC1=O)[C@H](C)C[C@@H]2OC (single isomer, unassigned) [TACROLIMUS ANHYDROUS] | condition met |
| CC[C@@H]1/C=C(/C)C[C@H](C)C[C@H](OC)C2O[C@@](O)(C(=O)C(=O)N3CCCC[C@H]3C(=O)O[C@H](/C(C)=C/[C@@H]3CC[C@@H](Oc4ccc5c(ccn5CCO)c4)[C@H](OC)C3)[C@H](C)[C@@H](O)CC1=O)[C@H](C)C[C@@H]2OC | condition met |
| CC[C@@H]1/C=C(/C)C[C@H](C)C[C@H](OC)C2O[C@@](O)(C(=O)C(=O)N3CCCC[C@H]3C(=O)O[C@H](/C(C)=C/[C@@H]3CC[C@@H](Oc4ccc5c(ccn5CC)c4)[C@H](OC)C3)[C@H](C)[C@@H](O)CC1=O)[C@H](C)C[C@@H]2OC | condition met |

Now look at this entry.
-- ask Does the reported pIC50 for CC[C@@H]1/C=C(/C)[C@@H](O)[C@@H](C)C[C@H](OC)[C@H]2O[C@@](O)(C(=O)C(=O)N3CCCC[C@H]3C(=O)O[C@H](/C(C)=C/[C@@H]3CC[C@@H](O)[C@H](OC)C3)[C@H](C)[C@@H](O)CC1=O)[C@H](C)C[C@@H]2OC fall at or above the 7 mark?
-- reply condition not met
